Reported IC50 is given for each of the following compounds.
- tested.system: RORγ ligand binding domain (Homo sapiens, UniProt P51449)
- protocol.details: RORγ co-factor recruitment assay (FRET)
- Assay type: biochemical
- Design: made in house; host or cells: E. coli BL21DE3 Star
- run.parameters: inhibition of recruitment of SRC-1 peptide (NCOA1_677-700) to hRORγ LBD, HTRF read-out

Answered examples (5):
[[record]]
compound = "CC(=O)N1Cc2cc(S(C)(=O)=O)ccc2C1C(=O)Nc1ccc(C(CCF)(C(F)(F)F)C(F)(F)F)cc1 (centres unmarked) [Example 35]"
result = "0.0398 µM"

[[record]]
compound = "CC(=O)N1Cc2cc(S(C)(=O)=O)ccc2C1C(=O)Nc1ccc(C(CC(=O)NC2CC2)(C(F)(F)F)C(F)(F)F)cc1 (centres unmarked) [Example 38]"
result = "0.631 µM"

[[record]]
compound = "CC(=O)N1Cc2cc(S(=O)(=O)CC3CC3)ccc2C1C(=O)Nc1ccc(C(C#N)(C(F)(F)F)C(F)(F)F)cc1 (centres unmarked) [Example 13]"
result = "0.0631 µM"

[[record]]
compound = "CC(=O)N1Cc2cc(S(C)(=O)=O)ccc2C1C(=O)Nc1ccc(C(CC(=O)OC(C)C)(C(F)(F)F)C(F)(F)F)cc1 (centres unmarked) [Example 40]"
result = "> 31.6 µM"

[[record]]
compound = "CCOC(=O)CC(c1ccc(NC(=O)C2c3ccc(S(C)(=O)=O)cc3CN2C(C)=O)cc1)(C(F)(F)F)C(F)(F)F (centres unmarked) [Example 37]"
result = "0.1 µM"


IC50 reading for CS(=O)(=O)c1ccc2c(c1)CN(C(=O)CO)C2C(=O)Nc1ccc(C(C#N)(C(F)(F)F)C(F)(F)F)cc1 (centres unmarked) [Example 5] : 0.0501 µM

IC50 reading for CC(=O)N1Cc2cc(S(C)(=O)=O)ccc2C1C(=O)Nc1ccc(C(Cc2nc(C)no2)(C(F)(F)F)C(F)(F)F)cc1 (centres unmarked) [Example 34] : 0.126 µM

IC50 reading for COCCNC(c1ccc(NC(=O)C2c3ccc(S(C)(=O)=O)cc3CN2C(C)=O)cc1)(C(F)(F)F)C(F)(F)F (centres unmarked) [Example 17] : 0.1 µM

IC50 reading for CC(=O)N1Cc2cc(S(C)(=O)=O)ccc2C1C(=O)Nc1ccc(C(N2CCCC2)(C(F)(F)F)C(F)(F)F)cc1 (centres unmarked) [Example 15] : 0.0398 µM

IC50 reading for CC(=O)N1Cc2cc(S(C)(=O)=O)ccc2C1C(=O)Nc1ccc(C(NC2COC2)(C(F)(F)F)C(F)(F)F)cc1 (centres unmarked) [Example 19] : 0.1 µM

IC50 reading for CS(=O)(=O)c1ccc2c(c1)CN(C(=O)CN)C2C(=O)Nc1ccc(C(C#N)(C(F)(F)F)C(F)(F)F)cc1 (centres unmarked) [Example 10] : 0.0794 µM

IC50 reading for CC(=O)N1Cc2cc(S(C)(=O)=O)ccc2C1C(=O)Nc1ccc(C(CC(=O)OC(C)(C)C)(C(F)(F)F)C(F)(F)F)cc1 (centres unmarked) [Example 44] : > 31.6 µM

IC50 reading for CS(=O)(=O)c1ccc2c(c1)CN(C(=O)CCC(=O)O)C2C(=O)Nc1ccc(C(C#N)(C(F)(F)F)C(F)(F)F)cc1 (centres unmarked) [Example 9] : 0.1 µM

IC50 reading for CC(=O)N1Cc2cc(S(C)(=O)=O)ccc2C1C(=O)Nc1ccc(C(N2CCOCC2)(C(F)(F)F)C(F)(F)F)cc1 (centres unmarked) [Example 23] : 0.0398 µM
